// data source = patent US8211927B2

- Target Entity: human VR1 (Homo sapiens)
- Construct: expressed in transfected cells
- Sequence (Q8NER1 whole entry): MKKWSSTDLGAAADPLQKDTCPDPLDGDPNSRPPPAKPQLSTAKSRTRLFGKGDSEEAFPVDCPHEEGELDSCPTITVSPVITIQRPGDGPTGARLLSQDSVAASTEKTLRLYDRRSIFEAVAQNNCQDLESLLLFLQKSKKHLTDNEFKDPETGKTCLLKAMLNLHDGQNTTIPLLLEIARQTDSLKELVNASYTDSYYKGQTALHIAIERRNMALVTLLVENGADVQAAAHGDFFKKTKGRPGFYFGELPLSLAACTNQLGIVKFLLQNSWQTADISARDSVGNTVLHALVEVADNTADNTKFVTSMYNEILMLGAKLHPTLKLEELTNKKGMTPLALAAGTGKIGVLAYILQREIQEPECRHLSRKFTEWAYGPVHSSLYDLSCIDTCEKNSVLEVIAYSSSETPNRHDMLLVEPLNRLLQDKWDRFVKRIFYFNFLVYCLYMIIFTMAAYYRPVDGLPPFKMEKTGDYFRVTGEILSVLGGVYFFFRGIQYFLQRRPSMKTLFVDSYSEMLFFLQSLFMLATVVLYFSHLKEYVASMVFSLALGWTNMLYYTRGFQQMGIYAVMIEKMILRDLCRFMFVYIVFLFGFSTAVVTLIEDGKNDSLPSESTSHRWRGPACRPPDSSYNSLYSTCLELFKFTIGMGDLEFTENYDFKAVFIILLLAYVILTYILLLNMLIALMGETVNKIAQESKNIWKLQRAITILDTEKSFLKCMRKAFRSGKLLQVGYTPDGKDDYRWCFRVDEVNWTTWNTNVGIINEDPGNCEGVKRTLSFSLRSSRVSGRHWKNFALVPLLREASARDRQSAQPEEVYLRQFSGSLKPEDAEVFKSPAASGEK
- Assay Remarks: FLIPR Calcium 3 calcium flux assay (headed Vanilloid Receptor Binding Assay), antagonist activity against capsaicin
- Type: cell-based
- Run Conditions: 10 min; highest concentration of 10 μM; Chinese hamster ovary cells expressing human VR1; read-out: TRPV1 % Mean effect at 10 μM concentration
Observation Type: inhibition at 10 µM (%)
All answers are understood in %, so give the number only.

1. O=C(NC1CCCC1)c1cc(-c2ccc(C(F)(F)F)cc2)on1 : 97
2. Cc1c(C(=O)NC2CCOCC2)noc1-c1ccc(C(F)(F)F)c(F)c1 : 99
3. O=C(NC1CCCC1)c1noc(-c2ccc(C(F)(F)F)cc2)c1Br : 67

Please give the measured inhibition at 10 µM for this compound: O=C(Nc1cccc(CO)c1)c1noc(-c2ccc(C(F)(F)F)c(F)c2)c1Cl
103

Consider the compound O=C(NC1CCCCC1)c1noc(-c2ccc(Cl)cc2)c1Cl and give its measured inhibition at 10 µM.
88

Entry CC[C@H](CO)NC(=O)c1noc(-c2ccc(C(F)(F)F)c(F)c2)c1C : reported inhibition at 10 µM = ?
99

So what does the record say about inhibition at 10 µM for Cc1c(C(=O)NC2CCCC2)noc1-c1ccc(C(F)(F)F)cc1 ?
101

# query: inhibition at 10 µM of entry O=C(NC1CCCC1)c1noc(-c2ccc(C(F)(F)F)cc2)c1Cl
90

Record request: inhibition at 10 µM value, item CCCc1c(C(=O)CC2CCCC2)noc1-c1ccc(C(F)(F)F)cc1
98

Which inhibition at 10 µM reading was recorded for the compound O=C(NC1CCCC1)c1noc(-c2ccc(F)cc2)c1Cl ?
98

Name the reported inhibition at 10 µM value associated with the compound Cc1c(C(=O)N[C@@H](C)C(C)C)noc1-c1ccc(C(F)(F)F)c(F)c1
103
